Target: CYP121 (Mycobacterium tuberculosis)
Sequence (P9WPP7 whole entry, the tested form may be a part): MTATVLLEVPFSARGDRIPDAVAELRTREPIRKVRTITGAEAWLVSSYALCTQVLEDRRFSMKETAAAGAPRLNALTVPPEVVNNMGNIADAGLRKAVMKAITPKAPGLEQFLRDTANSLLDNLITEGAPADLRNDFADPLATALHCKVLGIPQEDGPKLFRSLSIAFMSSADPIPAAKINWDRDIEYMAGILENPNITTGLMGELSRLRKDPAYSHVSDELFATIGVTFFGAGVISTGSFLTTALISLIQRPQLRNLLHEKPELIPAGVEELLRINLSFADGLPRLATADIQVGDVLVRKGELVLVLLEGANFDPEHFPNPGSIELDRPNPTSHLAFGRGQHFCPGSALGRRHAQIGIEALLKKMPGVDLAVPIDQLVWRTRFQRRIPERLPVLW
Settings: fragment 1 mM, P450 4-6 µM; relative to DMSO (417 nm)
property label: Δλmax (nm) CYP121, fragment screen

| compound | readout units | numeric value |
| --- | --- | --- |
| Oc1ccccn1 [compound 44] | nm | 0 |
| Nc1ccc(Cl)nn1 [compound 73] | nm | 0 |
| O=C1CCN(c2ccccc2)N1 [compound 64] | nm | 0 |
| Cc1[nH]ncc1-c1ccccc1 [compound 14] | nm | 0 |
| COC(=O)c1ccnc(N)c1 [compound 25] | nm | 0 |
| Nc1ccc(Br)cn1 [compound 23] | nm | -1 |
| Cc1cc(O)nnc1O [compound 24] | nm | -1 |
| O=C(O)c1ccc(-c2cccnc2)cc1 [compound 53] | nm | 0 |
| Clc1ncccc1Br [compound 57] | nm | -1 |
| COc1ccc(C(C)=O)cn1 [compound 31] | nm | 0 |
| Nc1cccc(Cn2cncn2)c1 [compound 5] | nm | 2 |
| O=C(O)c1cncc(F)c1 [compound 60] | nm | 0 |
| N#Cc1ccccn1 [compound 40] | nm | 0 |
| Clc1nccc2ccccc12 [compound 56] | nm | -2 |
| Brc1c[nH]cn1 [compound 77] | nm | -1 |
| Cn1nc(-c2ccccc2)cc1N [compound 11] | nm | 0 |
| O=S(=O)(O)c1ccccn1 [compound 78] | nm | 0 |
| c1ccc2c(c1)CCNC2 [compound 39] | nm | 0 |
| Clc1ccc(Cl)nn1 [compound 27] | nm | 0 |
| OCc1nccn1Cc1ccccc1 [compound 10] | nm | 0 |
| Nc1ccc(-n2cccn2)cc1 [compound 49] | nm | 0 |
| Nc1cc(-c2ccc(Cl)cc2)n[nH]1 [compound 12] | nm | 2 |
| COC(=O)c1cc2ccccc2cn1 [compound 26] | nm | 0 |
| Clc1cncc(Cl)c1 [compound 19] | nm | 0 |
| C#Cc1cccnc1 [compound 75] | nm | 0 |
| O=C(O)c1cccc(-c2cccnc2)c1 [compound 74] | nm | 0 |
| c1ccc(-c2ccn[nH]2)nc1 [compound 2] | nm | 0 |

###

Molecular target: CYP125 (Mycobacterium tuberculosis, UniProt P9WPP1)
Sequence (P9WPP1 whole entry): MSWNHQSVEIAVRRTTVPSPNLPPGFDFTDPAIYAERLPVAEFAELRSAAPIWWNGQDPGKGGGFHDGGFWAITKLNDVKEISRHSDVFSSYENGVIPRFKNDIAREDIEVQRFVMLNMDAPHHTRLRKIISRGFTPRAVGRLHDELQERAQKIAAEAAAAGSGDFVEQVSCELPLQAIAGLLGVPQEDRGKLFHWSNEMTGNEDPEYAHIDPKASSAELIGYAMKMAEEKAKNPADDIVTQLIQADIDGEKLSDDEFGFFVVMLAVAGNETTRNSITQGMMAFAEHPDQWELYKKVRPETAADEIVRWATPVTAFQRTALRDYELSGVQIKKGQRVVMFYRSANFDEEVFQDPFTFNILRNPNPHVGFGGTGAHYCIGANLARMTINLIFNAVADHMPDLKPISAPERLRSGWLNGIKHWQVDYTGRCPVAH
Format: binding
Settings: compound 100 µM, P450 5 µM; ratio of low spin to high spin CYP125
property label: CYP125 LS/HS

| compound | assayed target | result |
| --- | --- | --- |
| COC(=O)c1ccc(Nc2ccncc2)cc1 [4d, Methyl 4-(pyridin-4-ylamino)benzoate] | CYP125 (Mycobacterium tuberculosis, UniProt P9WPP1) | 1 |
| CS(=O)(=O)Nc1ccc(Cc2ccncc2)cc1 | CYP125 (Mycobacterium tuberculosis, UniProt P9WPP1) | 2.7 |
| c1ccc(N(c2ccccc2)c2ccncc2)cc1 | CYP125 (Mycobacterium tuberculosis, UniProt P9WPP1) | 1 |
| COC(=O)c1cccc(Nc2ccncc2)c1 | CYP125 (Mycobacterium tuberculosis, UniProt P9WPP1) | 1 |
| COc1cccc(Cc2ccncc2)c1 | CYP125 (Mycobacterium tuberculosis, UniProt P9WPP1) | 1.1 |

###

Test system: Mtb H37Rv
Assay: Depletion of intracellular ATP (BacTiter Glo), Mtb on cholesterol
Assay type: cell-based, Mycobacterium tuberculosis
Conditions: Mycobacterium tuberculosis, H37RV, 336 h, H37Rv; 2 weeks post-compound treatment; casitone; read-out: ATP IC50 (W2), cholesterol media with casitone

| compound | readout units | IC50 |
| --- | --- | --- |
| COc1ccc(CNc2ccc(Cc3ccncc3)cc2)cc1 [5m] | nM | 1500 |
